PROTOCOL: yeast display, Sf9 membrane polyspecificity reagent, FACS + sequencing; frameworks hold sequencing errors
ATTRIBUTE MEASURED: polyreactivity (PSR sort gate)

{"columns": ["SEQUENCE RECORD", "MEASURED VALUE"],
 "data": [
  ["HVHLVESGGGLVQAGGRLRLTCAASGRTFQKYAMGWYREAPRKERELVAAITTSGGSTYYADSVKGRFTISRDYAKYTVYLQMNSLKPEDTAVYYCNKAYAYAGHDYDWGQGTKVTVSS", "high polyreactivity"],
  ["QVQLVESGGGIVQAGGSLRLSCAASGRTFVLNALGWYRQAPGKERELVAAITLGGGSTYADSVKGRFTISRDNAQNTVYLQMNSLKPEDTAVYYCAADFHYPDFEYWGQGTQVTVSS", "low polyreactivity"],
  ["QVQLVESGGGLVQAGGRLRLSCAASGSSFVAYTMGWYRQAPGKERELVAAISRGGSTNYADSVKGRFTISRDNAKNTVYLQMNSLKPEDTAVYYCAAKVWDGQLLYYWGQGTQVTVSS", "low polyreactivity"],
  ["QVQLVESGGGLVQAGGSLRLSCAASGRIFRWYTMGWYRQAPGKEREFVAAITWSDTSTSYADSVKGRFTISRDNAKKTVYLQMNSLKPEDTAVYYCNAATRSSVTFGWYIEYDYWGQGTQVTVSS", "low polyreactivity"]
]}

polyreactivity (PSR sort gate) recorded for this sequence, QVQLVESGGGLVQAGGSLRLSCAASGRTTWIYAMGWYRQAPGKERELVAVISKRGGNTYYADSVKGRFTISRDNAKNTVYLQMNSLKPADTAVYYCAAAGVYGSYDYWGQGTQVTVSS , is high polyreactivity

polyreactivity (PSR sort gate) recorded for this sequence, QVQLVESGGGLVQAGGTLRLSCAASGSTFAANAMGCSRQAPGKERELVAGISESGDRTYADSVKGRFTISRDNAKNTVYLQMNSQKPEETAVYYCNVGANVYLLYFPSRGGVYDYGYWGHGTQVTVSS , is low polyreactivity

polyreactivity (PSR sort gate) recorded for this sequence, QVQLLESGGGLVQAGGSLRLSCAASGYTFRFNAMGWNRQAPGKETEFVAAIDFGGAGTYYADSVKGRFTISRDNAKNTVYLQMNSLKPEDTAVYYCNARDGVTTEFDYWGQVTQVTVSS , is low polyreactivity

polyreactivity (PSR sort gate) recorded for this sequence, QVQRVESGGGLVQAGGSLRLSCAASGSIFTGNAMGWYRQAPGKEREFVAAIRRSGA , is low polyreactivity

polyreactivity (PSR sort gate) recorded for this sequence, QVQLVESGGGLVQAGGSLRLSCAASGRIFRGYAMGWYRQAPGKERELVAVISYSGTRTYYADSVKGRFTISRDNAKNTVYLQMNSLKPEDTAVYYCNARANGFKDGYWGQGTQVTVSS , is high polyreactivity

polyreactivity (PSR sort gate) recorded for this sequence, QVQLVESGGGLVQAGGSLRLSCAASGSIFNRYAMGWSRQAPGKARELVPAISRRGAGTYYADSVKGRFTISRDNAKHTVYLQMNSLKPDDTAVYYCAAAGYFPTAGSRRAYYYCGQGTQVTVSS , is high polyreactivity

polyreactivity (PSR sort gate) recorded for this sequence, QVQLVESVGGLVQAGGILRLSCAASGSTFLDNAMGLYRQAPGKERELVAAITQSGSSTYYADSVKGRFTISRDNAKNTVYLQMNSLKPEDTAVYYCAADVPIISFDYWGQGTQVTVSS , is low polyreactivity

polyreactivity (PSR sort gate) recorded for this sequence, QVQLVESGGGLVQEGGSLRLSCAASGGIFFPNAMGWYRQAPGKERELVAAISWSAGSTYYADSVKGRFTISRDNAKNTVYLQMKSLKPEDTAVYYCAAAGSNYTVWFGYYYWGQVTQVTVSS , is low polyreactivity

polyreactivity (PSR sort gate) recorded for this sequence, QVQLVESGGGLVQAGGSLRLSCAASGSNFRGNAMAWYRQAPGKERELVAAITYNDGGTYYADSVKGRFTISRDNAMNTVYLQMNLLKPEDTAVYYCAAVGTGNKSILYDYWGQGTQVTVSS , is low polyreactivity

polyreactivity (PSR sort gate) recorded for this sequence, QVHLVESGGGLVQAGGSLPLSCAATGRTFVYYAMGWYIQAPGKERELVAAITWTGGSTYYADSVKGRFTISRDTAKNTVYLHMNSMKPEDTAVYYFKAAVFRYRNEYDYWGQGTQVTVSS , is low polyreactivity

polyreactivity (PSR sort gate) recorded for this sequence, QVQLVESGGGLVQAGGSLRLSCAASGSTFYRYALGWYRQAPGKEREFVAAISRSGGSTNYADSVKGRFTISRDNAKNTVYLQMNSMKPEDTAVYYCAAKYSDYQYGRYYYWGQGTQVTVSS , is high polyreactivity

polyreactivity (PSR sort gate) recorded for this sequence, QVQLVESGGGLVHAGGSLRLSCAASGRIFDGNTMGWYRQAPGKERELVAAISGGGSTDYADSVKGRFTISRDNAKNTVYLQMNSLKPEDTAVYYCAATTGPVPLKGDYWGQGTQVTVSS , is low polyreactivity

polyreactivity (PSR sort gate) recorded for this sequence, QVQLVESGGGLVQAGGSLRLSCAASGITSVDYAMRWYRQAPGKERELVAAITWSDSSTYYADSVKGRFTISRDNAKNTVYLQMNSLKPEDTAVYYCAAEYYFWGWEFDYWGQGTQVTVSS , is high polyreactivity

polyreactivity (PSR sort gate) recorded for this sequence, QVQLVESGGGLFQEGGSLRVSCAASGRIFIANAMGWYRQAPGKERELVAAISFSGGSTYYADSVKGRFTISRDNAKSTVYLQLNSLKPEDTAVYFCIKVGIRYYYGYDYWGHGTQVTVSS , is high polyreactivity

polyreactivity (PSR sort gate) recorded for this sequence, QVQLVESGGGLVQAGGSLRLICAASGLTFGSYAMGWYRQAPGKERELVAAISRSGGSTYYADSVKGRFTISRDNAKNTVYLQMNSLKPEDTAVYYCNAVNPYYAPTDRRVGYDYWGQGTQVTVSS , is high polyreactivity

polyreactivity (PSR sort gate) recorded for this sequence, QVHLVESGGGLVQAGGRLRLSCAASGSIFDDYAMGWYRQAPGKERELVAAITSGGSTYYADSVKGRFTISRDNAKNNVYLEMNSLKPEDTAVYYRATRYHWSSSFAPVGAYGYWGQGSQVTVSS , is low polyreactivity

polyreactivity (PSR sort gate) recorded for this sequence, QVQLVESGGGLVQAGGSLRLSCAASGRIFLRYAMGWYRQAPGKEREFVAAISYVGGSTYYADSVKGRFTISRDNAKNTVYLQMNILKPEDTAVYYCNADVPKSLLLYYPWGYGFWGQRTQVTVSS , is low polyreactivity

====

PROTOCOL: yeast display, Sf9 membrane polyspecificity reagent, FACS + sequencing; frameworks hold sequencing errors
ATTRIBUTE MEASURED: polyreactivity (PSR sort gate)

{"columns": ["SEQUENCE RECORD", "MEASURED VALUE"],
 "data": [
  ["QVQLVESGGGLVQAGGSLRLSCAASGFNFWRYAMGWYRQAPGKERELVASITSTGGSTYYADSVKGRFTISRDNAKNTVYLQMNSLKPEDTAVYYCAADTFVWADWSWHYYWGQGTQVTVSS", "high polyreactivity"],
  ["QVQLEESGGGLVQAGGSLRLSCAASGSIFAPYVMGWYRQATGKERELVAAITESGGRTYYADSVKGRFTISRDNAKNTVYLQMNSLKPEDTAVYYCAARTYDRNRQLRRQWYDYWGQGTQVTVSS", "high polyreactivity"]
]}

====

PROTOCOL: yeast display, Sf9 membrane polyspecificity reagent, FACS + sequencing; frameworks hold sequencing errors
ATTRIBUTE MEASURED: polyreactivity (PSR sort gate)

Please review the following examples before continuing.
{"columns": ["SEQUENCE RECORD", "ATTRIBUTE MEASURED", "MEASURED VALUE"],
 "data": [
  ["QVQLGESGAGLVQAGGSLRLSCAASGRTFYRYAMGWYRQAPGKERELVAAISSSGGRTYYADSVKGRFTISRDNAKNTVYLQMNSLKPEDTAVYYCAKSGYHSLVLWIEDYWGQGTQVTVSS", "polyreactivity (PSR sort gate)", "low polyreactivity"],
  ["QVQLVESGGGLVQAGGSLRLSCAASGSIFSRYTMGWYRQAPGKERELVAAISYSGTRTYYADSVKGRFTISRDNAKNTVYLQMNSLKPEDTAVYYCAAIASPAGSNYWGQGTQVTVSS", "polyreactivity (PSR sort gate)", "high polyreactivity"],
  ["QVQLVESGGGLVQAGGSLRLSCAASGIILDRNAMGWYRQAPGKERELVAAINSIGGSTYYADSVKGRFTISRDTAKNTVYLQMNSLKPEDTAVYYCNVAQRYYGNFFSSRYEYWGQGTQVTVSS", "polyreactivity (PSR sort gate)", "low polyreactivity"],
  ["QVQLVESGGGLVQAGGSLRLSCAASGPTFQIYAMGSYRQAPGNERELDAAIRWRGGTTYYADSVKGRFTISRDNAKNTVYLQMNSLTPEDTAVYYCAADYYWSPYYVYQFDYWGQGTQVTVSS", "polyreactivity (PSR sort gate)", "low polyreactivity"]
]}

polyreactivity (PSR sort gate) recorded for this sequence, QVQLVESVGGLVQAGGSLRLSCASSGSTFTYYAKVWYRQAPGKERELVAAISCTGTSTYYADSVKGRFTISRDNAKNTVYFQMNSLKPEDTAVYYSASTYRGYSGYKRRDYWGQGTQVTVSS , is high polyreactivity

polyreactivity (PSR sort gate) recorded for this sequence, QVHLVESVGGLVQAGGSLRLSCAASGRTFRRYAMVWYRQAPGKERELVATITSADSTNYADSVKGRFTISRDNAKNTVYLQMNSLKPEDTAVYYCAKRWGRYAMYYWGQGTQVTVSS , is high polyreactivity

polyreactivity (PSR sort gate) recorded for this sequence, QVQLVESGGGLDQARGTLRLSCAASGSTILGNAMGWYRHAPGKERELVAGITSGGTTNYADSVKGRFTISRVNAKNNVYLQMTSLKPEDTSVYYCNAGGHLEMNYWGKGTQVTVSS , is low polyreactivity
